Origin of values: patent US7208512B2

- experimental-target: 5-HT2 receptor (Rattus norvegicus)
- protocol-notes: 5-HT2 functional assay: phosphoinositide (PI) turnover in A7r5 rat vascular smooth muscle cells
- Format: cell-based
- Parameters: A7r5 rat vascular smooth muscle cells; endogenous in cells; host or cells: A7r5 rat vascular smooth muscle cells
- setup-conditions: [3H]-IPs production in A7r5 cells
readout-label: EC50 (nM)
Answers are plain numbers, in nM.

Look up EC50 with 5-HT2 receptor (Rattus norvegicus) for this molecule: COc1cc(C[C@@H](C)N)c(OC)cc1I [(R)-DOI, reference compound]
277

---

- experimental-target: 5-HT2 receptor (Rattus norvegicus, UniProt P14842)
- Sequence (P14842 whole entry): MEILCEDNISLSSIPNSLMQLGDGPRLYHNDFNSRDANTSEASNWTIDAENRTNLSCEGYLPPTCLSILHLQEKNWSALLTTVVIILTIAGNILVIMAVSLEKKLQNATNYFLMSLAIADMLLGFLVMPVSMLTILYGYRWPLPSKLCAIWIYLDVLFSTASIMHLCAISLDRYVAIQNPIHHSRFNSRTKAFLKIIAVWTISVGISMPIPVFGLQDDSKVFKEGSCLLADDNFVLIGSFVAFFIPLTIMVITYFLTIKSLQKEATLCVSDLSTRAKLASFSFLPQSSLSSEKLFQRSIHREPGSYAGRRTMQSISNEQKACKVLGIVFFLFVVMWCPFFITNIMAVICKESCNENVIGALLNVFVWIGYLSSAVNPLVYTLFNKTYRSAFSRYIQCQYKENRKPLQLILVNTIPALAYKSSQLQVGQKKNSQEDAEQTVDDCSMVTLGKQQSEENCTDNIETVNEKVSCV
readout-label: IC50 (nM)
Answers are plain numbers, in nM.

Look up IC50 with 5-HT2 receptor (Rattus norvegicus, UniProt P14842) for this compound: COc1cc(C[C@@H](C)N)c(OC)cc1I [(R)-DOI, reference compound]
0.46
